System: Staphylococcus aureus MW2 (mecA+)
protocolText: IC50 (growth, competition assay)
testContext: fluorescent label: DsRed; cefoxitin: subinhibitory
Counter-ions that a name gives are not always drawn.
Provide the recorded IC50 for the entries that follow.

Task: API: value(readout=IC50, system=Staphylococcus aureus MW2 (mecA+)) for record "C[C@@H](O)[C@H]1C(=O)N2C(C(=O)OCOC(=O)C(C)(C)C)=C(SC3CN(C4=NCCS4)C3)[C@H](C)[C@H]12"
Output: 1.76 µM

Task: API: value(readout=IC50, system=Staphylococcus aureus MW2 (mecA+)) for record CCCCC(CC)CN=C(N)N=C(N)NCCCCCCNC(N)=NC(N)=NCC(CC)CCCC (stereo not drawn) [ALEXIDINE HYDROCHLORIDE]
Output: < 9.85 µM

Task: API: value(readout=IC50, system=Staphylococcus aureus MW2 (mecA+)) for record CC[C@H]1OC(=O)C[C@@H](O)[C@H](C)[C@@H](O[C@@H]2O[C@H](C)[C@@H](O[C@H]3C[C@@](C)(O)[C@@H](O)[C@H](C)O3)[C@H](N(C)C)[C@H]2O)[C@@H](CC=O)C[C@@H](C)C(=O)/C=C/C(C)=C/[C@@H]1CO[C@@H]1O[C@H](C)[C@@H](O)[C@@H](OC)[C@H]1OC [TYLAN]
Output: < 9.85 µM

Task: API: value(readout=IC50, system=Staphylococcus aureus MW2 (mecA+)) for record "C[C@H]1[C@H](C)CC[C@]2(C(=O)O)CC[C@]3(C)C(=CC[C@@H]4[C@@]5(C)C[C@@H](O)[C@H](O)[C@@](C)(CO)[C@@H]5[C@H](O)C[C@]43C)[C@H]12"
Output: 53.8 µM

Task: API: value(readout=IC50, system=Staphylococcus aureus MW2 (mecA+)) for record CC[C@H]1OC(=O)[C@H](C)[C@@H](O[C@H]2C[C@@](C)(OC)[C@@H](O)[C@H](C)O2)[C@H](C)[C@@H](O[C@@H]2O[C@H](C)C[C@H](N(C)C)[C@H]2O)[C@](C)(O)C[C@@H](C)/C(=N\OCOCCOC)[C@H](C)[C@@H](O)[C@]1(C)O [RULIDE]
Output: < 9.85 µM

Task: API: value(readout=IC50, system=Staphylococcus aureus MW2 (mecA+)) for record "COc1ccc(COc2ccc(Cc3cnc(N)nc3N)cc2OC)cc1"
Output: 15.1 µM

Task: API: value(readout=IC50, system=Staphylococcus aureus MW2 (mecA+)) for record "CC[C@@]1([C@H]2O[C@H]([C@H]3O[C@@](O)(CO)[C@H](C)C[C@@H]3C)C[C@H]2C)CC[C@H]([C@@]2(C)CC[C@]3(C[C@H](O)[C@@H](C)[C@@H]([C@H](C)[C@H](OC)[C@@H](C)C(=O)O)O3)O2)O1"
Output: < 9.85 µM

Task: API: value(readout=IC50, system=Staphylococcus aureus MW2 (mecA+)) for record "Cc1ccc(S(=O)(=O)c2ccc([N+](=O)[O-])o2)cc1"
Output: < 9.85 µM

The values you see were collected from the supplement of paper PMC7695840.
